Data origin: ChEMBL document CHEMBL3259789

Documented CC50 at 120 h across a set of compounds
Test: Cytotoxicity against mouse L929 cells after 5 days
Assay type: cell-based
Conditions: read-out: LC50
measure: CC50 at 120 h (µg/mL)

molecule | measure | op | test-result
C=C(C)/C=C/c1ccc2[nH]cc(C/C=N/O)c2c1 | CC50 at 120 h | = | 6.8
C=C(C)/C=C/c1ccc2[nH]cc(C/C=N\O)c2c1 | CC50 at 120 h | = | 6.8
O=C(c1nccs1)c1c[nH]c2ccccc12 | CC50 at 120 h | > | 10
C=C(C)/C=C/c1ccc2[nH]cc(CCO)c2c1 | CC50 at 120 h | > | 10

====

Tested on: Chromobacterium violaceum
Assay: Antimicrobial activity against Chromobacterium violaceum DSM 30191 at 6.7 to 67 ug/ml by serial dilution method
Assay type: functional, organism-based
Activity calls are given as the source filed them. The calls are words filed in the database; no cut-off is given here.
measure: inhibition

molecule | test-result
C=C(C)/C=C/c1ccc2[nH]cc(C/C=N\O)c2c1 | inactive
O=C(c1nccs1)c1c[nH]c2ccccc12 | inactive
C=C(C)/C=C/c1ccc2[nH]cc(CCO)c2c1 | inactive
CC(=O)/C=C/c1ccc2[nH]cc(CCO)c2c1 | inactive
C=C(C)/C=C/c1ccc2[nH]cc(C/C=N/O)c2c1 | inactive
